Where do these numbers come from? They come from paper PMC6272295.

Collected IC50 values appear next to each entry.
# Subject of test: AChE from Electrophorus electricus (Electrophorus electricus, UniProt O42275)
# Construct: purchased Sigma (St. Louis, MO, USA)
# Sequence (O42275 24-633): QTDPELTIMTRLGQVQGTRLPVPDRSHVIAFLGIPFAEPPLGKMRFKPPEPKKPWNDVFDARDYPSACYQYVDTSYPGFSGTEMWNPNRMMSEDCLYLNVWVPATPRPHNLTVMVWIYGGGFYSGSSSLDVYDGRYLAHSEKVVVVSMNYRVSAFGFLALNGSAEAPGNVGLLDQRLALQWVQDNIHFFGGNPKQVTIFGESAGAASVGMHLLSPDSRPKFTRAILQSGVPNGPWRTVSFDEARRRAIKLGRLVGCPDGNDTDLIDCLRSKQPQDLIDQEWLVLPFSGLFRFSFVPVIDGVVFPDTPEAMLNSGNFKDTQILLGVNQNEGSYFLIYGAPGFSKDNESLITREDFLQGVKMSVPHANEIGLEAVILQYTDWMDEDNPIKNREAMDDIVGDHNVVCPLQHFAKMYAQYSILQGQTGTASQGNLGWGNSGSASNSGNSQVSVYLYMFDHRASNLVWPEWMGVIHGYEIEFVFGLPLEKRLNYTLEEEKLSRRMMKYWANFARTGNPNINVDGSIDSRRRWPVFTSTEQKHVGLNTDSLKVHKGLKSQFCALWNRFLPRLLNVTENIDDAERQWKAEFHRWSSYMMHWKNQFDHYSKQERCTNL
# Measurement notes: biochemical
# Run conditions: Ellman's method; read-out: IC50 in the AChEI assay

Compound | Subject of test | Unit symbol | Qualifier symbol | IC50
O=c1cc(-c2ccc(O)c(O)c2)oc2cc(O)cc(O)c12 [Luteolin (9), luteolin] | AChE from Electrophorus electricus (Electrophorus electricus, UniProt O42275) | µM | > | 500
CC(=O)O[C@@H]1c2c(ccc3ccc(=O)oc23)OC(C)(C)[C@@H]1OC(=O)[C@@]1(C)O[C@H]1C [Isoepoxypteryxin (3), isoepoxypteryxin] | AChE from Electrophorus electricus (Electrophorus electricus, UniProt O42275) | µM | = | 327
O=c1c(OC2OC(CO)C(O)C(O)C2O)c(-c2ccc(O)cc2)oc2cc(O)cc(O)c12 (stereo not drawn) [Kaempferol-3-O-glucoside (13), kaempferol-3-O-glucoside] | AChE from Electrophorus electricus (Electrophorus electricus, UniProt O42275) | µM | = | 80.4
COC(=O)C1(O)CC(O)C(O)C(OC(=O)C=Cc2ccc(O)c(O)c2)C1 (stereo not drawn) [Methyl chlorogenate (10), methyl chlorogenate] | AChE from Electrophorus electricus (Electrophorus electricus, UniProt O42275) | µM | > | 500
CC(=O)OC1c2c(ccc3ccc(=O)oc23)OC(C)(C)C1OC(=O)C(C)(O)C(C)O (stereo not drawn) [Hyuganin E (6), hyuganin E] | AChE from Electrophorus electricus (Electrophorus electricus, UniProt O42275) | µM | = | 286
C/C=C(/C)C(=O)O[C@@H]1[C@H](OC(C)=O)c2c(ccc3ccc(=O)oc23)OC1(C)C [Isopteryxin (4), isopteryxin] | AChE from Electrophorus electricus (Electrophorus electricus, UniProt O42275) | µM | = | 476
